test target: human Nav 1.8 (Homo sapiens, UniProt Q9Y5Y9)
Sequence (Q9Y5Y9 whole entry, looked up, the tested form may be a part): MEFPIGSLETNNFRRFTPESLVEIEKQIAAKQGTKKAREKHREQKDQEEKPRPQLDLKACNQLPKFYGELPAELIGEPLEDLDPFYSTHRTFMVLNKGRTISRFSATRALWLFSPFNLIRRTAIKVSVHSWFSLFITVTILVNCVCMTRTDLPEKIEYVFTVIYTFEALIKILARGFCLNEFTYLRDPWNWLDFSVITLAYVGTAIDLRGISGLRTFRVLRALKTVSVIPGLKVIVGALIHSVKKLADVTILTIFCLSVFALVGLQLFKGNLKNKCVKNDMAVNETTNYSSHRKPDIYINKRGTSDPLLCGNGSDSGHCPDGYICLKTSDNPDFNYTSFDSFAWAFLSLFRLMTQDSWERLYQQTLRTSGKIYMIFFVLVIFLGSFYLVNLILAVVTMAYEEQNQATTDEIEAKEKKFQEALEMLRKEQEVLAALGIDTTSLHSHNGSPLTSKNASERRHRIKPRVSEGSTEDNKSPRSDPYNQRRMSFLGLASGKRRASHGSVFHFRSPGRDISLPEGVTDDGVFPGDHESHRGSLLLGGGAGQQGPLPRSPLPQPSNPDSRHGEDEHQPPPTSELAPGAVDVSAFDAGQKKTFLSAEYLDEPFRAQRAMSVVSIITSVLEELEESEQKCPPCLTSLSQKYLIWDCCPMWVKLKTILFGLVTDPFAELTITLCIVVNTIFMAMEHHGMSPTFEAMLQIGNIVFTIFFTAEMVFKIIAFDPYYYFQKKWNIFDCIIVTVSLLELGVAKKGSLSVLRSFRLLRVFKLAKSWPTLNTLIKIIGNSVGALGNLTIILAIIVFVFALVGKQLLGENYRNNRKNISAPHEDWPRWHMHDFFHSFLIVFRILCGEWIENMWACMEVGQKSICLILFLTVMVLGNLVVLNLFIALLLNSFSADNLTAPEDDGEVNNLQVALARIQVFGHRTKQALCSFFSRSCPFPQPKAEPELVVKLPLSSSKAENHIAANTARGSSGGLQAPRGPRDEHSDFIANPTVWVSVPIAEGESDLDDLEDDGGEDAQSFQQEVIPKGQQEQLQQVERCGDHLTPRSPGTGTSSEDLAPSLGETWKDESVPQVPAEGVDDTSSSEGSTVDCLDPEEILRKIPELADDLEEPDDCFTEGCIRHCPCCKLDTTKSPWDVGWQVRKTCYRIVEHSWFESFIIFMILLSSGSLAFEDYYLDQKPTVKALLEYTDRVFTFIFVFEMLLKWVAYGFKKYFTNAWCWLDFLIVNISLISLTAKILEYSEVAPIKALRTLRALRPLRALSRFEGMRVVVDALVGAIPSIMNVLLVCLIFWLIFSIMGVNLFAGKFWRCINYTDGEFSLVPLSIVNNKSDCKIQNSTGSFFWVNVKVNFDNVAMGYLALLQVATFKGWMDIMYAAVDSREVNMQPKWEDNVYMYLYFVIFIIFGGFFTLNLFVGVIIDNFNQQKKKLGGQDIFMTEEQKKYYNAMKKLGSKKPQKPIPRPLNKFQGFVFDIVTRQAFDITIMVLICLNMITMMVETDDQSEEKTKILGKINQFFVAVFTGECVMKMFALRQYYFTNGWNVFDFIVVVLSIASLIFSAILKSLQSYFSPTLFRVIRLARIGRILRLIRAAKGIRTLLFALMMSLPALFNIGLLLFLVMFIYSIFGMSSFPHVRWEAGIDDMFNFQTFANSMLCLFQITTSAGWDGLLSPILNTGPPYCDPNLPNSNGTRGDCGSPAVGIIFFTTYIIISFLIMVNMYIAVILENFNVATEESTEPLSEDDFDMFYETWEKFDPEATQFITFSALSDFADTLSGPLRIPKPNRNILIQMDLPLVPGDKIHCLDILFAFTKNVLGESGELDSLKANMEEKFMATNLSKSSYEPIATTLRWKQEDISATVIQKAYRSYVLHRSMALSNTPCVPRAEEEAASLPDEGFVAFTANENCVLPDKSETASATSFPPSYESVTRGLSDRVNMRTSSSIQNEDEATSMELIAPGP
assay comment: E-VIPR assay detecting and measuring Nav inhibition (HEK cells expressing truncated human Nav 1.8)
Type: cell-based
protocol conditions: in the Presence of Human Serum in the E-VIPR Assay; read-out: IC50
pIC50: −log10 of the molar value.
experimental endpoint: pIC50

molecule: COc1c([C@H]2C[C@@](C)(C(F)(F)F)O[C@@H]2C(=O)Nc2ccc(F)c(C(N)=O)c2)ccc(F)c1F (single isomer, unassigned)
test target: human Nav 1.8 (Homo sapiens, UniProt Q9Y5Y9)
experimental endpoint: pIC50
reported result: < 6.00

molecule: C[C@H]1[C@@H](c2ccc(F)c(F)c2OC(F)F)[C@H](C(=O)Nc2cc[n+]([O-])c(C(N)=O)c2)O[C@@]1(C)C(F)(F)F
test target: human Nav 1.8 (Homo sapiens, UniProt Q9Y5Y9)
experimental endpoint: pIC50
reported result: > 8.00

molecule: CNC(=O)c1cc(NC(=O)[C@@H]2O[C@@](C)(C(F)(F)F)[C@@H](C)[C@H]2c2ccc(F)cc2OC(F)F)ccn1 (single isomer, unassigned)
test target: human Nav 1.8 (Homo sapiens, UniProt Q9Y5Y9)
experimental endpoint: pIC50
reported result: 6.00 to 7.00
